Reference source for all entries: patent US6586441B2

molecular target: human adenosine A2A receptor (Homo sapiens, UniProt P29274); construct: expressed in transfected cells; host or cells: CHO cells, semliki forest virus expression system; membrane preparation; experiment: Human adenosine A2A receptor [3H]-SCH-58261 binding assay; details: human A2a receptor, membranes of CHO cells, [3H]-SCH-58261; read-out: pKi (affinity to the human A2a receptor) (converted)
Sequence (P29274 whole entry): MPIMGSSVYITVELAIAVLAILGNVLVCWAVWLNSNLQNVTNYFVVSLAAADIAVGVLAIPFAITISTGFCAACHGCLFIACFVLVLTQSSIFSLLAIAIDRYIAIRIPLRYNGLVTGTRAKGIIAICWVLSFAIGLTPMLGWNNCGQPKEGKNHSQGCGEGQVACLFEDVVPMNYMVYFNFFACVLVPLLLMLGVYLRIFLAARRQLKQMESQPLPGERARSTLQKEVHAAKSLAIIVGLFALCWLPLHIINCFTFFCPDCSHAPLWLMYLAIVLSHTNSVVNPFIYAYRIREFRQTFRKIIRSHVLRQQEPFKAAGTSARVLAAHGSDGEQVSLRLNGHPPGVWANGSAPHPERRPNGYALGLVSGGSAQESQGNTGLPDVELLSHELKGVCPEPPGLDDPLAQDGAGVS
Known Ki of a selection of compounds
State just the number; it will be interpreted in nM.

Sample answers from the record:
Cc1cccnc1CNc1nc(N)nc(-c2ccco2)c1C#N [Example 368] : 1.86
Cc1cnc(COc2nc(N)nc(-c3ccc(Cl)o3)c2C#N)c(C)c1 [Example 526] : 4.27
N#Cc1c(SCCc2ccccn2)cc(N)nc1-c1ccco1 [Example 356] : 0.912
Cc1cccnc1CNc1cc(N)nc(-c2ccco2)c1C#N [Example 376] : 4.57

Cc1coc(-c2nc(N)nc(OCCc3ccccn3)c2C#N)c1 [Example 423] yielded Ki of 3.02

N#Cc1c(SCCc2ccccc2)nc(N)nc1-c1ccco1 [Example 233] yielded Ki of 2.75

Nc1nc(SCCc2ccccc2)c(Br)c(-c2ccco2)n1 [Example 269] yielded Ki of 7.76

N#Cc1c(OCCc2ccccc2)nc(N)nc1-c1ccco1 [Example 53] yielded Ki of 6.31

N#Cc1c(NCc2ccccn2)cc(N)nc1-c1ccco1 [Example 371] yielded Ki of 8.13

N#Cc1c(OCc2ccccn2)nc(N)nc1-c1cccs1 [Example 206] yielded Ki of 9.55

* * *

molecular target: human adenosine A2A receptor (Homo sapiens); construct: expressed in transfected cells; host or cells: CHO cells, semliki forest virus expression system; membrane preparation; assay: Human adenosine A2A receptor [3H]-SCH-58261 binding assay; conditions: human A2a receptor, membranes of CHO cells, [3H]-SCH-58261; read-out: pKi (affinity to the human A2a receptor) (converted)
Ranges used to classify Ki: low-valued = under 3 nM, mid-valued = from 3 nM up to 5 nM, high-valued = 5 nM and over

N#Cc1c(OCc2cc3ccccc3cn2)nc(N)nc1-c1ccco1 [Example 366] : low-valued
N#Cc1c(-c2ccco2)nc(N)nc1N1CCCCC1 [Example 41] : high-valued
Cc1cccnc1COc1nc(N)nc(-c2ccc(Cl)o2)c1C#N [Example 530] : low-valued

Place this molecule in its band: N#Cc1c(OC2CCCCC2)nc(N)nc1-c1ccco1 [Example 55]
high-valued

Place this molecule in its band: Cc1ccc(CNc2nc(N)nc(-c3ccco3)c2C#N)nc1 [Example 363]
mid-valued

Place this molecule in its band: N#Cc1c(NCCNc2ccc(Cl)cc2)nc(N)nc1-c1ccco1 [Example 318]
high-valued

Place this molecule in its band: N#Cc1c(SCc2ccccn2)nc(N)nc1-c1ccco1 [Example 284]
mid-valued

Place this molecule in its band: Cc1cnc(COc2nc(N)nc(-c3cc(Br)co3)c2C#N)c(C)c1 [Example 533]
low-valued

* * *

target: human adenosine A2A receptor (Homo sapiens); construct: expressed in transfected cells; host or cells: CHO cells, semliki forest virus expression system; membrane preparation; experiment: Human adenosine A2A receptor [3H]-SCH-58261 binding assay; conditions: human A2a receptor, membranes of CHO cells, [3H]-SCH-58261; read-out: pKi (affinity to the human A2a receptor) (converted)
measured.endpoint: log10 of Ki (log10 of the value in nM)
Parameter value (number): base-10 log of Ki in nM.

N#Cc1c(NCCOc2ccccc2)nc(N)nc1-c1ccco1 : 0.54
Cc1cccc(COc2nc(N)nc(-c3ccc(C)o3)c2C#N)n1 : 0.27
N#Cc1c(NCCNc2ccccc2)nc(N)nc1-c1ccco1 : 0.67
N#Cc1c(NCc2ccc3ccccc3n2)cc(N)nc1-c1ccco1 : 0.59
N#Cc1c(NCc2ccc(C(F)(F)F)cc2)nc(N)nc1-c1ccco1 : 0.62

N#Cc1c(OCCc2ccccn2)cc(N)nc1-c1ccco1 yielded log10 of Ki of 0.48

N#Cc1c(OCCc2ccccn2)nc(N)nc1-c1ccc(Cl)o1 yielded log10 of Ki of -0.06

N#Cc1c(SCCc2ccccn2)nc(N)nc1-c1ccco1 yielded log10 of Ki of -0.08
